Kindly state hERG current change (%, negative = inhibition) at 1uM for each of the entries shown.
# assay_target: human ether-à-go-go-related gene (hERG) potassium channel (human)
# assay_notes: primary screen, population patch clamp on CHO cells stably expressing hERG; higher = less effect of the substance
In all, about 310,000 compounds went through this assay and about 2,200 (0.71%) showed an effect of 50% or more. The effect is printed as a negative number. This is one part of a sample in which strong results are shown more often than they occur.
Answer format: numeric, % implied, no suffix.

GET /values?readout=hERG current change (%, negative = inhibition) at 1uM&system=human ether-à-go-go-related gene (hERG) potassium channel (human)&item= N=c1n(CCOc2ccccc2)c2ccccc2n1CCN1CCOCC1
-10

GET /values?readout=hERG current change (%, negative = inhibition) at 1uM&system=human ether-à-go-go-related gene (hERG) potassium channel (human)&item= Cc1cccc(-c2ccc(NC(=O)C3CCN(CC4CC4)CC3)cc2)c1
-5.16

GET /values?readout=hERG current change (%, negative = inhibition) at 1uM&system=human ether-à-go-go-related gene (hERG) potassium channel (human)&item= CC(/C=N/NC(=O)c1ccncc1)=C\c1ccco1
14.7

GET /values?readout=hERG current change (%, negative = inhibition) at 1uM&system=human ether-à-go-go-related gene (hERG) potassium channel (human)&item= CC1C=CCC2C(=O)N(c3ccccc3OC(=O)c3cccs3)C(=O)C12 (stereo not drawn)
9.04

GET /values?readout=hERG current change (%, negative = inhibition) at 1uM&system=human ether-à-go-go-related gene (hERG) potassium channel (human)&item= O=C(CN1CCCCC1)Nc1cc(Cl)ccc1Cl
-0.089

GET /values?readout=hERG current change (%, negative = inhibition) at 1uM&system=human ether-à-go-go-related gene (hERG) potassium channel (human)&item= S=C(NCCc1ccccn1)Nc1ccccc1Cl
17

GET /values?readout=hERG current change (%, negative = inhibition) at 1uM&system=human ether-à-go-go-related gene (hERG) potassium channel (human)&item= C=C(C)CNC(=O)c1ccc(OC2CCN(S(=O)(=O)N(C)C)CC2)cc1
13.2

GET /values?readout=hERG current change (%, negative = inhibition) at 1uM&system=human ether-à-go-go-related gene (hERG) potassium channel (human)&item= CCc1ccc2oc(-c3cc(N)ccc3O)nc2c1
9.06

GET /values?readout=hERG current change (%, negative = inhibition) at 1uM&system=human ether-à-go-go-related gene (hERG) potassium channel (human)&item= O=C(NCC1CCCO1)c1cccc2ccccc12 (stereo not drawn)
17.8

GET /values?readout=hERG current change (%, negative = inhibition) at 1uM&system=human ether-à-go-go-related gene (hERG) potassium channel (human)&item= CSCCC1NC(=O)N(CC(=O)Nc2cc(C)on2)C1=O (stereo not drawn)
9.03

GET /values?readout=hERG current change (%, negative = inhibition) at 1uM&system=human ether-à-go-go-related gene (hERG) potassium channel (human)&item= N=c1c(C(=O)NCC2CCCO2)cc2c(=O)n3ccccc3nc2n1C1CCCCC1 (stereo not drawn)
-79.2

GET /values?readout=hERG current change (%, negative = inhibition) at 1uM&system=human ether-à-go-go-related gene (hERG) potassium channel (human)&item= COc1ccc(NC(=O)CN2CCN(CC(=O)Nc3ccccc3Cl)CC2)cc1
-79.3

GET /values?readout=hERG current change (%, negative = inhibition) at 1uM&system=human ether-à-go-go-related gene (hERG) potassium channel (human)&item= COc1ccc(NC(=O)CN2CCN(c3ccccc3Cl)CC2)cc1
1.08

GET /values?readout=hERG current change (%, negative = inhibition) at 1uM&system=human ether-à-go-go-related gene (hERG) potassium channel (human)&item= N=c1c(S(=O)(=O)c2ccc(Br)cc2)cc2c(=O)n3ccccc3nc2n1C1CCCCC1
21.1

GET /values?readout=hERG current change (%, negative = inhibition) at 1uM&system=human ether-à-go-go-related gene (hERG) potassium channel (human)&item= N#Cc1ccc(CSc2nnc(-c3cccnc3)n2-c2ccccc2)cc1
-26.5

GET /values?readout=hERG current change (%, negative = inhibition) at 1uM&system=human ether-à-go-go-related gene (hERG) potassium channel (human)&item= O=C(COC(=O)/C=C/c1ccccc1F)Nc1nnc(-c2ccccc2)o1
7.16

GET /values?readout=hERG current change (%, negative = inhibition) at 1uM&system=human ether-à-go-go-related gene (hERG) potassium channel (human)&item= O=C(Nc1ccc(Cl)cc1)Nc1ccc2c(c1)OCO2
12.5

GET /values?readout=hERG current change (%, negative = inhibition) at 1uM&system=human ether-à-go-go-related gene (hERG) potassium channel (human)&item= N=c1c(S(=O)(=O)c2ccc(Br)cc2)cc2c(=O)n3ccccc3nc2n1C1CCCC1
14.3

GET /values?readout=hERG current change (%, negative = inhibition) at 1uM&system=human ether-à-go-go-related gene (hERG) potassium channel (human)&item= COc1ccc(NC(=O)CN2CCN(S(=O)(=O)c3ccc(Cl)cc3)CC2)cc1
-64.1

GET /values?readout=hERG current change (%, negative = inhibition) at 1uM&system=human ether-à-go-go-related gene (hERG) potassium channel (human)&item= COc1ccc(NC(=O)CN2CCC(C(N)=O)CC2)cc1
2.62

GET /values?readout=hERG current change (%, negative = inhibition) at 1uM&system=human ether-à-go-go-related gene (hERG) potassium channel (human)&item= O=C(O)CCC(=O)NCc1cn(-c2ccccc2)nc1-c1cccc(Br)c1
9.76

====

# assay_target: human ether-à-go-go-related gene (hERG) potassium channel (human, UniProt Q12809)
# Sequence (Q12809 whole entry, looked up): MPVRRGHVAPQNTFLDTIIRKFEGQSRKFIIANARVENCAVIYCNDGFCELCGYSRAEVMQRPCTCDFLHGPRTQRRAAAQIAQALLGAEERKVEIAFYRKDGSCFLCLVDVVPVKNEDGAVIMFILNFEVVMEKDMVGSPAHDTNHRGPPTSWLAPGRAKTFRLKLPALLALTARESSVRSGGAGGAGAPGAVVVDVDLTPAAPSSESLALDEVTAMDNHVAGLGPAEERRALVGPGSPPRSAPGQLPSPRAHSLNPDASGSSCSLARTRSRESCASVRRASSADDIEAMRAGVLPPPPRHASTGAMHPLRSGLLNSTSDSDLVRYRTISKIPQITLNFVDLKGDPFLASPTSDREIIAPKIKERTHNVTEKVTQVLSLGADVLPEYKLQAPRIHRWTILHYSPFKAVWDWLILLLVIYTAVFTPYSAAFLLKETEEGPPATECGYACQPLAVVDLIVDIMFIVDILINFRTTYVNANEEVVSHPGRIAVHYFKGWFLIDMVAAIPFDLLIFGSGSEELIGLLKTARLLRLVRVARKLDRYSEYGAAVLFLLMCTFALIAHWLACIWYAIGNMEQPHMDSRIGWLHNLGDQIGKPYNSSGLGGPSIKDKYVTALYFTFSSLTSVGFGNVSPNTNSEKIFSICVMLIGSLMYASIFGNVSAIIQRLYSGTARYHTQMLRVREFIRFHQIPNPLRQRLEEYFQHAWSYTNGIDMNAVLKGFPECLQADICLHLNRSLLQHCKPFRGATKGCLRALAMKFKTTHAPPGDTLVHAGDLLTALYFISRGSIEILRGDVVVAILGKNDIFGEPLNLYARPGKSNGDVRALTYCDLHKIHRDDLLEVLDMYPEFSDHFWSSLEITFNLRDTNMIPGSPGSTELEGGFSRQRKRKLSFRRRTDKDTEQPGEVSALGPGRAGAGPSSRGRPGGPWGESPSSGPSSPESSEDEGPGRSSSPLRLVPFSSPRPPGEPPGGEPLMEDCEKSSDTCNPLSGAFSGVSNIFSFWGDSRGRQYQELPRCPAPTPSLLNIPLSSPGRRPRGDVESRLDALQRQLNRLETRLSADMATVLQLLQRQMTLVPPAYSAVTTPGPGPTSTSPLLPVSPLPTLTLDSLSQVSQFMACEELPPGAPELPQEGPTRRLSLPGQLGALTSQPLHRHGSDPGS
# assay_notes: primary screen, population patch clamp on CHO cells stably expressing hERG; higher = less effect of the substance
In all, about 310,000 compounds went through this assay and about 2,200 (0.71%) showed an effect of 50% or more. Effects have a minus sign here. The full list was thinned out, with strong results kept by preference.
Kindly state hERG current change (%, negative = inhibition) at 1uM for each of the entries shown.
Answer format: numeric, % implied, no suffix.

GET /values?readout=hERG current change (%, negative = inhibition) at 1uM&system=human ether-à-go-go-related gene (hERG) potassium channel (human, UniProt Q12809)&item= COc1ccc(C(CCN)c2ccc3c(c2)OCO3)cc1 (centres unmarked)
13.6

GET /values?readout=hERG current change (%, negative = inhibition) at 1uM&system=human ether-à-go-go-related gene (hERG) potassium channel (human, UniProt Q12809)&item= O=C(C[n+]1cn(C(F)F)c2ccccc21)c1ccc(OC(F)F)cc1.[Br-]
-53.7

GET /values?readout=hERG current change (%, negative = inhibition) at 1uM&system=human ether-à-go-go-related gene (hERG) potassium channel (human, UniProt Q12809)&item= COc1ccc(C(=O)C[n+]2cn(C(F)F)c3ccccc32)c(F)c1.[Br-]
-0.738

GET /values?readout=hERG current change (%, negative = inhibition) at 1uM&system=human ether-à-go-go-related gene (hERG) potassium channel (human, UniProt Q12809)&item= COc1ccc(C(CCNCc2ccccc2)c2ccc(F)cc2)cc1 (centres unmarked)
-17.7

GET /values?readout=hERG current change (%, negative = inhibition) at 1uM&system=human ether-à-go-go-related gene (hERG) potassium channel (human, UniProt Q12809)&item= COc1ccc(C(CCNCc2ccc(N(C)C)cc2)c2ccccc2OC)cc1 (centres unmarked)
-18.4
